Reported cytotoxicity at 70.5 h by item:
experiment: Human HepG2 cell viability assay in 384 well format; type: toxicity, cell-based; set-up: dose 125 nL, time 70.5 hour; concentration not given beside the values; settings: HepG2 cells, read-out: Inhibition

>  <molecule>
COc1cc(OCC(=O)NCCc2ccccc2)cc(OC)c1OC

>  <u>
%

>  <cytotoxicity at 70.5 h>
-5.97

$$$$
>  <molecule>
COCc1nn(C(C)C)c2c1CCN(Cc1ccsc1)C2

>  <u>
%

>  <cytotoxicity at 70.5 h>
-5.82

$$$$
>  <molecule>
Cn1nc(C(=O)N2CCOCC2)c2c1CN(CC1CC1)C2

>  <u>
%

>  <cytotoxicity at 70.5 h>
-3.11

$$$$
>  <molecule>
Cc1ncc(C(=O)N2CCCC(n3cccn3)C2)s1 (configuration not stated)

>  <u>
%

>  <cytotoxicity at 70.5 h>
-11.8

$$$$
>  <molecule>
N[C@@H]1CCN(Cc2ccc(-c3nc(-c4cccnc4)cc(=O)[nH]3)cc2)C1

>  <u>
%

>  <cytotoxicity at 70.5 h>
-10.8

$$$$
>  <molecule>
CCc1ccc(C(=O)NCCNc2ncccn2)cc1

>  <u>
%

>  <cytotoxicity at 70.5 h>
11.9

$$$$
>  <molecule>
Cc1nnc([C@@]23CCO[C@@H]2CCN(Cc2scnc2C)C3)o1

>  <u>
%

>  <cytotoxicity at 70.5 h>
-10.2

$$$$
>  <molecule>
CCn1ccnc1CN(C)c1cc(N(C)C)ncn1

>  <u>
%

>  <cytotoxicity at 70.5 h>
0.0154

$$$$
>  <molecule>
CSc1ccc(C(C(=O)O)N2CCOCC2)cc1 (configuration not stated)

>  <u>
%

>  <cytotoxicity at 70.5 h>
-11.2

$$$$
>  <molecule>
CC1CCN(CC2(O)CCCN(Cc3cccc(F)c3F)C2=O)CC1 (configuration not stated)

>  <u>
%

>  <cytotoxicity at 70.5 h>
1.43

$$$$
>  <molecule>
Cc1cc(=O)n(CC(=O)NC(C)C)c(Nc2ccc(F)c(C)c2)n1

>  <u>
%

>  <cytotoxicity at 70.5 h>
23.2

$$$$
>  <molecule>
Cn1ccc(CN2CCC(CCc3ccc(O)cc3)CC2)cc1=O

>  <u>
%

>  <cytotoxicity at 70.5 h>
-9.59

$$$$

---

Reported cytotoxicity at 70.5 h by item:
experiment: Human HepG2 cell viability assay in 384 well format; format: toxicity, cell-based; parameters: dose 125 nL, time 70.5 hour; concentration not given beside the values; conditions: HepG2 cells, read-out: Inhibition
property: cytotoxicity at 70.5 h (%)

>  <compound>
CCCn1nnnc1COc1cc(OC)ccc1C(=O)OC

>  <value.reported>
-7.14

$$$$
>  <compound>
Cc1nc(C)c(C(=O)N2CCc3nnc(C4CCCCN4C)n3CC2)s1 (stereo not drawn)

>  <value.reported>
-8.99

$$$$
>  <compound>
CCN(C(=O)NCc1cccnc1N(C)C)C(C)c1cccnc1 (stereo not drawn)

>  <value.reported>
-8.8

$$$$
>  <compound>
CC(O)(CNC(=O)NCc1cccc(-n2cncn2)c1)c1ccco1 (stereo not drawn)

>  <value.reported>
7.59

$$$$
>  <compound>
COc1cc(CCO)c(OC)c2c1OCO2

>  <value.reported>
-7.84

$$$$
>  <compound>
O=C(COC1CCCC1)N1CC[C@H]2OCC[C@@]2(COCC2CC2)C1

>  <value.reported>
-3.35

$$$$
>  <compound>
O=C(c1cc(COc2ccc3c(c2)OCO3)[nH]n1)N1CCSCC1

>  <value.reported>
-0.532

$$$$
>  <compound>
Cn1ccnc1CN(CCCO)CC(F)(F)F

>  <value.reported>
0.0577

$$$$
>  <compound>
Cc1c(C[S+](C)[O-])cccc1NC(=O)c1cc(Cl)ccn1 (stereo not drawn)

>  <value.reported>
-2.39

$$$$
>  <compound>
c1cncc(N2CCCC3(CCN(CCN4CCCC4)CC3)C2)c1

>  <value.reported>
-1.3

$$$$
>  <compound>
COc1cccc(CNc2nc(N3CCOCC3)ns2)c1OC

>  <value.reported>
15.5

$$$$
>  <compound>
Cc1ccc(C2CSCCN2C(=O)c2ccsc2)o1 (stereo not drawn)

>  <value.reported>
-6.25

$$$$
>  <compound>
OC(COCc1cccs1)CN1CCc2c(ncn2C2CC2)C1 (stereo not drawn)

>  <value.reported>
-2.16

$$$$
>  <compound>
O=C(Nc1c(F)cccc1F)N1CC(c2nc(C3CC3)no2)C1

>  <value.reported>
-6.67

$$$$
>  <compound>
CCC1CN(CC(=O)NCCN2CCCC2)c2ccccc2S1 (stereo not drawn)

>  <value.reported>
-2.98

$$$$
>  <compound>
Cc1ccc(C(=O)N2CCN(CC(O)c3ccc(F)cc3)CC2)s1 (stereo not drawn)

>  <value.reported>
-6.7

$$$$
>  <compound>
COc1ccc(-c2n[nH]c(C)c2CC(=O)N2CCOCC2)cc1

>  <value.reported>
-6.85

$$$$
>  <compound>
CC(C)(C)c1nc(CN2CCC(c3nc4cc(Cl)ccc4o3)CC2)no1

>  <value.reported>
15.4

$$$$
>  <compound>
CCCN(C(=O)c1ocnc1C)C1CCCN(Cc2ccccc2)C1 (stereo not drawn)

>  <value.reported>
-5.56

$$$$
>  <compound>
CC1CCN(C(=O)NCC(=O)N(C)CC(F)(F)F)C1 (stereo not drawn)

>  <value.reported>
-4.12

$$$$
>  <compound>
CCn1nnnc1-c1cccc(NC(N)=O)c1

>  <value.reported>
-5.79

$$$$
>  <compound>
CCCC(C)N(C)C(=O)c1nc(S(C)(=O)=O)n2ccccc12 (stereo not drawn)

>  <value.reported>
0.813

$$$$
>  <compound>
CCCNC(=O)CCNC(=O)c1sc2ccc(F)cc2c1C

>  <value.reported>
31.9

$$$$
>  <compound>
CCn1cnnc1CNC(=O)c1cc(Cl)ccc1F

>  <value.reported>
-11.5

$$$$
>  <compound>
CCNC(=O)[C@@H]1C[C@@H](NC(=O)c2cccn2C)CN1CCCSC

>  <value.reported>
-6.56

$$$$
>  <compound>
CCCN1CCc2c(C(=O)N(C)Cc3ccccn3)nn(C)c2C1

>  <value.reported>
-6.22

$$$$
>  <compound>
Cc1cccc(CN2CC[C@@H]3[C@@H](CO[C@H]3CNc3ncccn3)C2)n1

>  <value.reported>
-8.04

$$$$
>  <compound>
Cc1ccccc1OCC(O)CN1CCC(c2ccn[nH]2)CC1 (stereo not drawn)

>  <value.reported>
-4.42

$$$$
>  <compound>
CN(Cc1cc(Br)cn1C)C(=O)c1cccnc1

>  <value.reported>
-8.21

$$$$
>  <compound>
CCc1ccc(C(=O)N(CC)Cc2ccoc2)cc1S(C)(=O)=O

>  <value.reported>
-13.3

$$$$
>  <compound>
COc1c(CNCCNC(=O)c2ccccc2F)c(C)nn1C

>  <value.reported>
-15.6

$$$$
>  <compound>
Cc1cc(C)nc(C2CCN(C3CCCCC3)C2)n1 (stereo not drawn)

>  <value.reported>
-5.66

$$$$
>  <compound>
c1ccc2c(c1)CCN2c1nc(N2CCOCC2)c2nn[nH]c2n1

>  <value.reported>
32.9

$$$$
>  <compound>
Cc1ccc(CN2C[C@H](OCC3CCN(C)CC3)[C@H]3COC[C@H]32)o1

>  <value.reported>
4.22

$$$$
>  <compound>
Cn1nccc1C(=O)N1CCOC(Cc2cccnc2)C1 (stereo not drawn)

>  <value.reported>
16

$$$$
>  <compound>
Cc1noc(C)c1CN1C[C@H](OCC(=O)N(C)C)[C@H]2COC[C@H]21

>  <value.reported>
-6.89

$$$$
>  <compound>
O=C(Nc1ccccc1Cn1cccn1)N1CCC(N2CCCC2)C1 (stereo not drawn)

>  <value.reported>
-2.57

$$$$
>  <compound>
COc1ccccc1C(C)N1CCN(S(=O)(=O)N(C)C)CC1 (stereo not drawn)

>  <value.reported>
4.97

$$$$
>  <compound>
CCOc1cc(CN(C)Cc2ccccc2)ccc1OC(F)F

>  <value.reported>
-6.62

$$$$
>  <compound>
CC(=O)N(C)c1nc(CN2CCCC2c2cnn(C)c2)cs1 (stereo not drawn)

>  <value.reported>
1

$$$$
>  <compound>
COc1ccc(C2SC(C)=Nc3c2c(=O)[nH]n3C2CCCCC2)cc1O (stereo not drawn)

>  <value.reported>
2.14

$$$$
>  <compound>
Cn1c(NCC(=O)N2CCCCC2)c(C#N)c(=O)n(C)c1=O

>  <value.reported>
-11.6

$$$$
>  <compound>
COc1cc(CC2CC(c3ccc4c(c3)OCO4)=NO2)cc2c1OCO2 (stereo not drawn)

>  <value.reported>
-9.64

$$$$
>  <compound>
CN(C[C@@H]1CCC[C@@H]2CN(c3ncccn3)C[C@@H]21)C1CC1

>  <value.reported>
-1.63

$$$$
>  <compound>
O=C(O)c1cc(-n2cc3c(n2)CCC3)cc(S(=O)(=O)NC2CCCC2)c1

>  <value.reported>
26.3

$$$$
>  <compound>
c1csc(-c2noc(CN3CCCC3Cn3cccn3)n2)c1 (stereo not drawn)

>  <value.reported>
-2.35

$$$$
>  <compound>
COc1coc(C(=O)Nc2nc(-c3ccncc3)cs2)cc1=O

>  <value.reported>
-11.9

$$$$
>  <compound>
Cc1cnn(C2CCCN(C(=O)c3cc(C)sc3C)C2)c1 (stereo not drawn)

>  <value.reported>
-2.62

$$$$
